test: Solubility of compound by turbidimetric assay; format: physicochemical
Measured solubility kinetic, listed per entry.
Answer shape: numeric part, then the unit.

The examples below pair each entry with its known result.
CS(=O)(=O)c1ccc2nc(NC(=O)NCc3nc(-c4ccc(Br)cc4)c[nH]3)sc2c1    44.5 µM
O=C(NCc1nc(-c2ccc(Br)cc2)c[nH]1)Nc1ncc(Sc2nc3ccccc3s2)s1    50 µM
O=C(NCc1nc(-c2ccc(Br)cc2)c[nH]1)Nc1ncc(Sc2ncccc2C(F)(F)F)s1    52 µM
O=C(NCc1nc(-c2ccc(Br)cc2)c[nH]1)Nc1ncc(Sc2ncccn2)s1    83.9 µM
O=C(NCc1nc(-c2ccc(Br)cc2)c[nH]1)Nc1nc2c(F)cc(F)cc2s1    125 µM
O=C(NCc1nc(-c2ccc(Br)cc2)c[nH]1)Nc1nc2ccc(Br)cc2s1    31.3 µM

(Q) Requested read-out: solubility kinetic. Entry: `O=C(NCc1nc(-c2ccc(Br)cc2)c[nH]1)Nc1ncc(Sc2ccc(Cl)cn2)s1`
(A) 59 µM

(Q) Requested read-out: solubility kinetic. Entry: `O=C(NCc1nc(-c2ccc(Br)cc2)c[nH]1)Nc1ncc(Sc2ccc(Br)cc2)s1`
(A) 63.6 µM

----------
assay: Solubility of compound by turbidimetric assay; type: physicochemical
Measurement type: solubility kinetic (µM)
// return numeric value only (unit: µM, not printed)

O=C(NCc1nc(-c2ccc(Br)cc2)c[nH]1)Nc1nc2ccccc2s1    64.8

(Q) Requested read-out: solubility kinetic. Entry: `O=C(NCc1nc(-c2ccc(Br)cc2)c[nH]1)Nc1nc2ccc(F)cc2s1`
(A) 61.3

(Q) Requested read-out: solubility kinetic. Entry: `O=C(NCc1nc(-c2ccc(Br)cc2)c[nH]1)Nc1ncc(Sc2ccc(C(F)(F)F)cn2)s1`
(A) 18.3

(Q) Requested read-out: solubility kinetic. Entry: `O=C(NCc1ncc(-c2ccc(Br)cc2)[nH]1)Nc1ncc(Sc2ccccn2)s1`
(A) 80.1

(Q) Requested read-out: solubility kinetic. Entry: `CCOc1ccc2nc(NC(=O)NCc3nc(-c4ccc(Br)cc4)c[nH]3)sc2c1`
(A) 79

(Q) Requested read-out: solubility kinetic. Entry: `O=C(NCc1nc(-c2ccc(Br)cc2)c[nH]1)Nc1nc2ccc(Cl)cc2s1`
(A) 76.9

(Q) Requested read-out: solubility kinetic. Entry: `O=C(NCc1nc(-c2ccc(Br)cc2)c[nH]1)Nc1ncc(Sc2ccc3ccccc3n2)s1`
(A) 74.7
